experiment: non-covalent RecA intein splicing inhibitors, dose response, biochemical, cell-free, fluorescence, secondary screen (AID 449750)
Calls of active or inactive are those of the source. How the calls were made is not given here.
One label from this list, please: active, inactive

Completed entries (count: 2):
{"columns": ["Molecule", "Class"],
 "data": [
  ["O=C1c2ccccc2-c2onc3ccc(N4CCCC4)c1c23", "inactive"],
  ["CC(C)CC(NC(=O)CCl)c1ccccc1 (centres undefined)", "active"]
]}

query: Record lookup: outcome of this test for COc1cc(C(c2c(C)[nH][nH]c2=O)c2c(C)[nH][nH]c2=O)ccc1OC(C)C ?
result: active

query: So what was the verdict on CC1=NN(c2ccccc2)C(=O)/C1=C/c1cccs1 in this test?
result: active

query: Outcome logged for C/C(CC(=O)Nc1cc(C)ccn1)=N\NC(=O)C(=O)NC(C)C in this assay:
result: inactive

query: What did the test return for COc1ccccc1NC1=C(N2CCCCC2)C(=O)c2ccccc2C1=O ?
result: active

query: Can you look up the reported call for Cc1ccc(CS(=O)(=O)c2ncc(Cl)c(C(=O)Nc3nnc(C)s3)n2)cc1 for me?
result: inactive

query: Look up the recorded call for COc1ccc(N2C(=O)C(Cl)=C(N3CCN(Cc4ccccc4)CC3)C2=O)cc1 in this test.
result: inactive

query: Record lookup: outcome of this test for CC(C)c1[nH]nc2c1C(Cc1ccccc1)C(C#N)=C(N)O2 (centres undefined) ?
result: inactive

query: For COCc1[nH]nc2c1C(c1cccc(OC)c1)C(C#N)=C(N)O2 (centres undefined) , which call appears in the assay record?
result: inactive

query: Outcome logged for O=C(NC1CCCC1)C(c1ccc(F)cc1)N(Cc1ccccc1Cl)C(=O)CCl (centres undefined) in this assay:
result: active

query: Which outcome was assigned to O=C1C(C2=C(O)c3ccccc3C2=O)=Nc2ccccc21 in this test?
result: active

query: Give the logged outcome of this assay for the following molecule: O=c1[nH]c(Nc2ccccc2Cl)cc2ccccc12
result: active

query: # fetch the recorded call for COc1ccccc1NC1=C(Cl)C(=O)OC1OC(=O)c1ccco1 (centres undefined) here
result: inactive

query: How did this test come out for COc1ccc(S(=O)(=O)c2cnc3ccccc3n2)cc1 ?
result: inactive

query: Fill in: this test's call for Cc1ccc(C(c2cc(Cl)c3cccnc3c2O)N2CCN(C)CC2)cc1 (centres undefined) is ___
result: active

query: Call for entry Cc1cc2nc(Sc3c([N+](=O)[O-])nc(C)n3Cc3ccccc3)[nH]c2cc1C :
result: inactive

query: What did this assay record as the result for CC1=NN(c2ccc(Cl)c(C(=O)O)c2)C(=O)/C1=C\c1ccc(-c2ccc(C(=O)O)cc2)o1 ?
result: active

query: Record lookup: outcome of this test for CCCc1[nH]nc2c1C(c1ccncc1)C(C#N)=C(N)O2 (centres undefined) ?
result: inactive

query: Entry CCOC(=O)c1sc(N(Cc2ccccc2)C(=O)CCl)nc1C : call = ?
result: active

query: What did this assay record as the result for N#CC1=C(N)C(C#N)(C#N)C(c2cccnc2)C2CN(C(=O)OCc3ccccc3)CC=C12 (centres undefined) ?
result: inactive

query: Returns: the outcome recorded for Cc1ccc(S(=O)(=O)Oc2ccc(C(c3c(C)[nH][nH]c3=O)c3c(C)[nH][nH]c3=O)cc2)cc1 in this assay.
result: active
